assay: NCI Yeast Anticancer Drug Screen. Data for the wt2 strain (AID 169);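 further: 0% = growth of vehicle-treated yeast cultures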; conditions: S. cerevisiae wt2 strain growth inhibition; at 11.0 µM; hits give high values
The panel holds about 79,000 compounds, 15% with a hit somewhere; the sample as a whole holds those more often.
Endpoint name: growth inhibition (%)
Answers are plain numbers, in %.

Compound | growth inhibition / %
N#C/C(=C\c1cccc(OCc2ccccc2)c1)c1ccc([N+](=O)[O-])cc1 | -49

Parameters: items (list). Returns: growth inhibition for each item.
1. O=C(O)C1OC1(c1cccc(Cl)c1)c1ccccc1Cl (configuration not stated)
2. O=C1OC(CCl)CN1/N=C/c1ccc([N+](=O)[O-])o1 (configuration not stated)
3. O=C(O)c1ccccc1-c1ccccc1C(=O)Nc1ccc2c(c1)Cc1ccccc1-2
4. CC(C)C1=CC2=C[C@H](O)[C@H]3C(C)(C)CCC[C@]3(C)C2=C(O)C1=O
5. Cc1ccc2ccc3cccc4ccc1c2c34
6. O=C(c1ccc(Cl)cc1Cl)C(Cl)Cl
7. Cc1ccc(S(=O)(=O)NCCSS(=O)(=O)c2ccc(C)cc2)cc1
8. CC(C)c1cc(C(C)C)c(O)c(C([O-])[O-])c1.CC(C)c1cc(C(C)C)c(O)c(C([O-])[O-])c1.CC(C)c1cc(C(C)C)c(O)c(C([OH2+])[OH2+])c1.CC(C)c1cc(C(C)C)c(O)c(C([OH2+])[OH2+])c1.[Cu+2].[Cu+2].[OH3+].[OH3+]

1: -18; 2: 20; 3: 16; 4: 99; 5: -3; 6: 16; 7: -1; 8: 32

###

I'd appreciate it if you could supply growth inhibition values for the items below.
assay: NCI Yeast Anticancer Drug Screen. Data for the wt1 strain (AID 149);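 further: 0% = growth of vehicle-treated wt1 cultures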; settings: S. cerevisiae wt1 strain (SPY 50644) growth inhibition; at 1.2 µM; hits give high values
About 79,000 compounds went through this panel and 15% of them were active in at least one assay; those are over-represented in the sample as a whole.
Numbers only, in %.

The examples below pair each entry with its known result.
Compound | Observed measurement
CCCCCCCCC/C=C/C=C/C(=O)NCC(=O)NC1C(O)C(O)C(Nc2ncnc3nc[nH]c23)OC1C(O)CO (stereo not given) | -41
CCCCN(CCCC)CCSc1ccc(Cl)cc1 | -1
O=C(COC(=O)c1cc(O)c(O)c(O)c1)c1ccc(-c2ccccc2)cc1 | -3
S=c1[nH]nc(Nc2ccc(Cl)cc2)s1 | 1
Cc1nc(-[n+]2nc(-c3ccncc3)nn2-c2ccccc2)sc1C | -1

Batch request: growth inhibition per item, same order as input.
1. CN(CCc1ccccn1)c1ccc2c(c1)Cc1ccccc1-2
2. COC(=O)C1=C(C)NC(C)=C(C(=O)OCCCN2CCC(c3ccccc3)(c3ccccc3)CC2)C1c1cccc([N+](=O)[O-])c1 (stereo not given)
3. Cc1c(Cl)ccc2c1S(=O)(=O)c1cccc(Cl)c1-2

1
-3
-6

Batch: growth inhibition for all items listed.
1. CO[C@H]1C[C@](C)(O)Cc2cc3c(c(O)c21)C(=O)c1c(O)cc2c(c1C3=O)O[C@@H]1O[C@@]2(C)[C@H](O)[C@@H](N(C)C)[C@@H]1O
2. COc1cc2c(cc1[N+](=O)[O-])C(=O)C(Br)(Br)CCC2

1: -38; 2: 38

###

assay: NCI Yeast Anticancer Drug Screen. Data for the rad18 strain (AID 177); settings: S. cerevisiae rad18 mutant growth inhibition; at 33.0 µM
Compounds without any hit were thinned out: in the full panel of roughly 79,000, 15% have a hit. Active and inactive are the calls of the source. Rule as the data show it: active = growth inhibition above about 70%; inactive = the rest.
One label from this list, please: active, inactive

Observe how each entry below is paired with its result.
Compound | Assigned class
Brc1ccc(-c2cc3c(cc2C2SCCS2)OCO3)cc1 | inactive
Cc1ccc(NN(NC(=O)OC(C)C)C(=O)OC(C)C)cc1 | inactive
Cc1ccc(-c2ccc(Nc3c4ccccc4nc4ccccc34)cc2)cn1 | active
CC(/C=C/c1ccc2c(c1)OCO2)[N+](=O)[O-] (stereo not given) | active

Switching to the query record.
Per the records of this test, what outcome belongs to CC[C@@]1(O)C(=O)OCc2c1cc1n(c2=O)Cc2cc3c(CN(C)C)c(O)ccc3nc2-1 ?
inactive

###

assay: NCI Yeast Anticancer Drug Screen. Data for the rad50 strain (AID 155);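 further: 0% = growth of vehicle-only cultures of the same strain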; settings: S. cerevisiae rad50 strain growth inhibition; at 33.0 µM
The panel holds about 79,000 compounds, 15% with a hit somewhere; the sample as a whole holds those more often. Activity calls are given as the source filed them. No stated cut-off is given here; in the data, active means growth inhibition above about 70%; inactive means the rest.
The categories you may choose from are active, inactive

See these solved cases before continuing.
Molecule | Assigned class
O=C1CSc2cc([N+](=O)[O-])ccc2N1 | inactive
OC(COc1cccc2ccccc12)CN1CCOCC1 (configuration not stated) | inactive
CSC1=NNC(SC)=NN1 | inactive

What call does the record list for CC(=O)Oc1cc(-c2cc(OC(C)=O)c(OC(C)=O)c3ccccc23)c2ccccc2c1OC(C)=O ?
inactive

Given O=[N+]([O-])c1cccc([N+](=O)[O-])c1S(=O)(=O)c1ccccc1 , state the outcome it received in this test.
active

State the result this test recorded for NC1=NS(=O)(=O)N=C(N)C1=Cc1ccc([N+](=O)[O-])o1 .
active

Any idea what this test logged for CCCCCCCCCCCCCC[N+](C)(CC(=O)[O-])Cc1ccccc1 (configuration not stated) ?
active

Give the logged outcome of this assay for the following molecule: O=C(/C=C\c1ccc(Cl)cc1Cl)c1cccs1
inactive

Answer briefly: the call reported for c1ccc(-c2ccnc3c2ccc2c(-c4ccccc4)ccnc23)cc1 in this assay.
active

How was CC(=O)OC1CCC2(C)C(=CCC3C4CCC5(OC6CC(C)CN(C(C)=O)C6C5C)C(C)=C4C(=O)C32)C1 (configuration not stated) classified in this test?
active

# outcome recorded in this test, key = CSC(=S)N/N=C(\C)c1cccc(C)n1
active

Per the assay record, what outcome was assigned to CCCCCCCCC/C=C/C=C/C(=O)NCC(=O)NC1C(O)C(O)C(Nc2ncnc3nc[nH]c23)OC1C(O)CO (configuration not stated) ?
inactive

Would you mind telling me which call this test gave NC(=NCc1ccccc1)N/N=C\c1ccnc2ccccc12 ?
inactive

Look up the recorded call for CCCCCCCCCCCCCCCCCCOCC(O)COP(=O)(O)OCC1OC(n2cc(F)c(=O)[nH]c2=O)CC1O (configuration not stated) in this test.
active

Would you mind telling me which call this test gave Oc1cccc2c(Cl)ccnc12 ?
active

Please state the recorded outcome for this molecule: COc1ccccc1C(=O)OCC1CCCN2CCCCC12 (configuration not stated)
active

# outcome recorded in this test, key = O=C(O)c1cccc(-c2c3ccc(=O)cc-3oc3cc(O)ccc23)c1
inactive

###

test: NCI Yeast Anticancer Drug Screen. Data for the sgs1 strain (AID 173);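 further: 0% = growth of vehicle-only control cultures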; conditions: S. cerevisiae sgs1 mutant, at 1.2 µM, hits give high values
This is part of a sample that, as a whole, favours compounds with a hit. Of some 79,000 tested, about 15% had one in any assay.
Endpoint name: growth inhibition (%)
One number for each entry, in %.

Compound | growth inhibition / %
COC(=O)C1=C(C(=O)OC)C2(C)C=CC1O2 (centres undefined) | -4
CCCCCCCCCCCCCCC(C(=O)[O-])[n+]1ccccc1 (centres undefined) | 0
c1ccc2c(c1)NC(NC1Nc3ccccc3N1)N2 | 0
COc1cccc2nc3ccccc3nc12 | -6
CC(=O)[O][Bi]([c]1ccccc1)[c]1ccccc1 | 28
Cc1cc(N=Nc2ccc(S(=O)(=O)[O-])cc2)cc(C(=O)[O-])c1[O-].NC1CCCCC1N.[Na+].[Pt+4] | 21
COC(=O)c1ccc(NCC2=CC(=O)C=CC2=O)cc1O | 3
CCOC(=O)c1cc(-c2ccc(Cl)cc2)c([N+](=O)[O-])n1C | 27
Cc1ccc(CSC(N)=Nc2ccccc2)cc1C | 6
Cc1ccc(S(=O)(=O)NCCSS(=O)(=O)c2ccc(C)cc2)cc1 | 20

Your task in this section: give growth inhibition for each listed record.
1. O=C1C(Nc2ccccc2)=C(Oc2ccccc2)C(=O)c2ccccc21
2. Clc1ccccc1C1OC1c1ccccc1Cl (centres undefined)
3. c1ccc2c(c1)-c1nc3ccccc3cc1C2N1CCOCC1 (centres undefined)

[-7, -78, 2]

Quick one: give me growth inhibition for each item below, same order please.
1. CCC(C(=O)O)C1=C(c2ccccc2)CCc2ccccc21 (centres undefined)
2. CC(=O)Oc1cc(-c2cc(OC(C)=O)c(OC(C)=O)c3ccccc23)c2ccccc2c1OC(C)=O
3. CCCCOC(=O)N[C@H]1CCc2cc(OC)c(OC)c(OC)c2-c2ccc(SC)c(=O)cc21
4. [N-]=[N+]=NC1=C(c2ccccn2)C(=O)c2cccc3cccc1c23
5. CC(C(=O)N1C(=O)N(C(=O)[C@H](C)C(O)c2ccccc2)[C@H](c2ccccc2)[C@H]1c1ccccc1)[C@@H](O)c1ccccc1 (some centres undefined)

1. 7
2. 7
3. -3
4. -2
5. -2

Go through the list and state growth inhibition for each entry.
1. O=[N+]([O-])c1ccc2c(c1)C(N1CCN(CCO)CC1)Cc1ccc(F)cc1S2 (centres undefined)
2. CCCN(CCC)CC(O)c1cc(-c2ccc(Cl)cc2)nc2c(C)c(Cl)ccc12 (centres undefined)
3. O=C(NC(Nc1ccc(F)c(Cl)c1)(C(F)(F)F)C(F)(F)F)C(C(F)(F)F)C(F)(F)F
4. CC(=O)OCCOCNC(=S)N/N=C(\C)c1cnccn1
5. CC1(Cl)CC(O)C2(CC1Br)C1(C)OC1C1OC1(Br)C2(C)C (centres undefined)
6. O=CC=C(c1ccccc1)c1ccccc1

1. -1
2. -2
3. 8
4. -23
5. -25
6. -3

# batch: return growth inhibition for each of the 6 compounds below
1. CC(C)C1=CC2=C[C@H](O)[C@H]3C(C)(C)CCC[C@]3(C)C2=C(O)C1=O
2. Cc1ccc(S/N=C\c2ccccc2O)cc1
3. Cn1ccnc1Oc1ccc(Cl)cc1
4. O=[N+]([O-])c1cccc2nccc(NCCCO)c12
5. OC1CCCc2c1cc1ccc3cccc4ccc2c1c34 (centres undefined)
6. CCN(CC)CC(O)c1ccc2ccc3ccccc3c2c1 (centres undefined)

1. 8
2. 3
3. -15
4. 8
5. -8
6. 8

// input: 4 compounds below; output: growth inhibition for each
1. O=C(O)c1ccccc1-c1ccccc1C(=O)Nc1ccc2c(c1)Cc1ccccc1-2
2. [O-][n+]1c2ccc(O)cc2nc2ccc(Br)cc21
3. CC(CC(C)(C)[N+](C)(C)C)[N+](C)(C)C (centres undefined)
4. O=C1Nc2ccccc2/C1=C/COc1ccccc1

1
4
2
1

These data points were gathered from PubChem BioAssay (NCI).
